B1: 3'-5' exoribonuclease 1, residues 65 to 114; numbered along this chain, Q8IV48 (parent)
chain: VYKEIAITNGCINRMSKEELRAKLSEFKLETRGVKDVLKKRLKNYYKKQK

# Variants of: B1
# PROCEDURE_SUMMARY: abundance fitness (aPCA) (normalised: wild type 0, dead -1); higher = more abundant; growth selection in yeast, the domain comes from the species named
# CONDITION_LABEL: Homo sapiens
Classes are defined on abundance fitness with ranges band 1 (below -0.4), band 2 (-0.4 to below -0.1), band 3 (-0.1 or more)

Query string: Would you mind sorting `R32T` into the appropriate category?
Result string: band 2

Query string: Would you mind sorting `C11F` into the appropriate category?
Result string: band 2

Query string: Would you mind sorting `K35I` into the appropriate category?
Result string: band 1

Query string: Would you mind sorting `F27Y` into the appropriate category?
Result string: band 3

Query string: Would you mind sorting `S25C` into the appropriate category?
Result string: band 2

Query string: Would you mind sorting `Y2Q` into the appropriate category?
Result string: band 3
